Molecular target: equine FcRn (large alpha subunit p51) in complex with equine beta-2-microglobulin (equine) (UniProt F6XZ61)
Experiment: SPR (Biacore), pH 6
Provide the reported pKd of each item.
Give bare numbers, as −log10 of the molar value.

Some binders with recorded pKd:
equine IgG7 K311G mutant (antibody, part only; not given: variable domains, not shown: another chain or arm of the molecule) constant: ASTTAPKVFPLASHSAATSGSTVALGCLVSSYFPEPVTVSWNSGALTSGVHTFPSVLQSSGLYSLSSMVTVPASSLKSQTYICNVAHPASSTKVDKKIVIKECGGCPTCPECLSVGPSVFIFPPKPKDVLMISRTPTVTCVVVDVGHDFPDVQFNWYVDGVETHTATTEPKQEQNNSTYRVVSILAIQHGDWLSGKEFKCKVNNQALPAPVQKTISKPTGQPREPQVYVLAPHRDELSKNKVSVTCLVKDFYPTDIDIEWKSNGQPEPETKYSTTPAQLDSDGSYFLYSKLTVETNRWQQGTTFTCAVMHEALHNHYTEKSVSKSPGK : 7.68
equine IgG7 K311A mutant (antibody, part only; not given: Variable domains, not shown: another chain or arm of the molecule) constant: ASTTAPKVFPLASHSAATSGSTVALGCLVSSYFPEPVTVSWNSGALTSGVHTFPSVLQSSGLYSLSSMVTVPASSLKSQTYICNVAHPASSTKVDKKIVIKECGGCPTCPECLSVGPSVFIFPPKPKDVLMISRTPTVTCVVVDVGHDFPDVQFNWYVDGVETHTATTEPKQEQNNSTYRVVSILAIQHADWLSGKEFKCKVNNQALPAPVQKTISKPTGQPREPQVYVLAPHRDELSKNKVSVTCLVKDFYPTDIDIEWKSNGQPEPETKYSTTPAQLDSDGSYFLYSKLTVETNRWQQGTTFTCAVMHEALHNHYTEKSVSKSPGK : 7.61
equine IgG7 A426P mutant (antibody, part only; not given: variable domains, not shown: another chain or arm of the molecule) constant: ASTTAPKVFPLASHSAATSGSTVALGCLVSSYFPEPVTVSWNSGALTSGVHTFPSVLQSSGLYSLSSMVTVPASSLKSQTYICNVAHPASSTKVDKKIVIKECGGCPTCPECLSVGPSVFIFPPKPKDVLMISRTPTVTCVVVDVGHDFPDVQFNWYVDGVETHTATTEPKQEQNNSTYRVVSILAIQHKDWLSGKEFKCKVNNQALPAPVQKTISKPTGQPREPQVYVLAPHRDELSKNKVSVTCLVKDFYPTDIDIEWKSNGQPEPETKYSTTPAQLDSDGSYFLYSKLTVETNRWQQGTTFTCPVMHEALHNHYTEKSVSKSPGK : 7.63
equine IgG7 Y436E mutant (antibody, part only; not given: variable domains, not shown: another chain or arm of the molecule) constant: ASTTAPKVFPLASHSAATSGSTVALGCLVSSYFPEPVTVSWNSGALTSGVHTFPSVLQSSGLYSLSSMVTVPASSLKSQTYICNVAHPASSTKVDKKIVIKECGGCPTCPECLSVGPSVFIFPPKPKDVLMISRTPTVTCVVVDVGHDFPDVQFNWYVDGVETHTATTEPKQEQNNSTYRVVSILAIQHKDWLSGKEFKCKVNNQALPAPVQKTISKPTGQPREPQVYVLAPHRDELSKNKVSVTCLVKDFYPTDIDIEWKSNGQPEPETKYSTTPAQLDSDGSYFLYSKLTVETNRWQQGTTFTCAVMHEALHNHETEKSVSKSPGK : 7.87
equine IgG7 T286G mutant (antibody, part only; not given: variable domains, not shown: another chain or arm of the molecule) constant: ASTTAPKVFPLASHSAATSGSTVALGCLVSSYFPEPVTVSWNSGALTSGVHTFPSVLQSSGLYSLSSMVTVPASSLKSQTYICNVAHPASSTKVDKKIVIKECGGCPTCPECLSVGPSVFIFPPKPKDVLMISRTPTVTCVVVDVGHDFPDVQFNWYVDGVETHGATTEPKQEQNNSTYRVVSILAIQHKDWLSGKEFKCKVNNQALPAPVQKTISKPTGQPREPQVYVLAPHRDELSKNKVSVTCLVKDFYPTDIDIEWKSNGQPEPETKYSTTPAQLDSDGSYFLYSKLTVETNRWQQGTTFTCAVMHEALHNHYTEKSVSKSPGK : 7.74

Provide the reported pKd of each entry below, same order.
1. equine IgG7 T286Y mutant (antibody, part only; not given: Variable domains, not shown: another chain or arm of the molecule) constant: ASTTAPKVFPLASHSAATSGSTVALGCLVSSYFPEPVTVSWNSGALTSGVHTFPSVLQSSGLYSLSSMVTVPASSLKSQTYICNVAHPASSTKVDKKIVIKECGGCPTCPECLSVGPSVFIFPPKPKDVLMISRTPTVTCVVVDVGHDFPDVQFNWYVDGVETHYATTEPKQEQNNSTYRVVSILAIQHKDWLSGKEFKCKVNNQALPAPVQKTISKPTGQPREPQVYVLAPHRDELSKNKVSVTCLVKDFYPTDIDIEWKSNGQPEPETKYSTTPAQLDSDGSYFLYSKLTVETNRWQQGTTFTCAVMHEALHNHYTEKSVSKSPGK
2. equine IgG7 T286F mutant (antibody, part only; not given: variable domains, not shown: another chain or arm of the molecule) constant: ASTTAPKVFPLASHSAATSGSTVALGCLVSSYFPEPVTVSWNSGALTSGVHTFPSVLQSSGLYSLSSMVTVPASSLKSQTYICNVAHPASSTKVDKKIVIKECGGCPTCPECLSVGPSVFIFPPKPKDVLMISRTPTVTCVVVDVGHDFPDVQFNWYVDGVETHFATTEPKQEQNNSTYRVVSILAIQHKDWLSGKEFKCKVNNQALPAPVQKTISKPTGQPREPQVYVLAPHRDELSKNKVSVTCLVKDFYPTDIDIEWKSNGQPEPETKYSTTPAQLDSDGSYFLYSKLTVETNRWQQGTTFTCAVMHEALHNHYTEKSVSKSPGK
3. equine IgG7 K311R mutant (antibody, part only; not given: variable domains, not shown: another chain or arm of the molecule) constant: ASTTAPKVFPLASHSAATSGSTVALGCLVSSYFPEPVTVSWNSGALTSGVHTFPSVLQSSGLYSLSSMVTVPASSLKSQTYICNVAHPASSTKVDKKIVIKECGGCPTCPECLSVGPSVFIFPPKPKDVLMISRTPTVTCVVVDVGHDFPDVQFNWYVDGVETHTATTEPKQEQNNSTYRVVSILAIQHRDWLSGKEFKCKVNNQALPAPVQKTISKPTGQPREPQVYVLAPHRDELSKNKVSVTCLVKDFYPTDIDIEWKSNGQPEPETKYSTTPAQLDSDGSYFLYSKLTVETNRWQQGTTFTCAVMHEALHNHYTEKSVSKSPGK

Solution:
[7.83, 8.11, 7.93]
